Values compiled from the supplement of paper PMC8671470.

- Test system: LAMA-84
- method: cell viability (% survival relative to DMSO control, bortezomib = 0%); higher = less cytotoxic
- condition-details: 10 nM; 72 h
Structures can show the parent of a compound that is named as a salt.
// reported cell viability for each item listed

molecule: O=C(O)C(=O)CBr [3-bromopyruvic acid]
cell viability (%): 101

molecule: CC[C@H](C)C(=O)O[C@H]1C[C@@H](C)C=C2C=C[C@H](C)[C@H](CC[C@@H]3C[C@@H](O)CC(=O)O3)[C@H]21 [Lovastatin]
cell viability (%): 103

molecule: N#CC(C#N)=NNc1ccc(OC(F)(F)F)cc1 [FCCP]
cell viability (%): 97.6

molecule: CN(C)c1cc(NC(=O)CNC(C)(C)C)c(O)c2c1C[C@H]1C[C@H]3[C@H](N(C)C)C(=O)C(C(N)=O)C(=O)[C@@]3(O)C(=O)C1C2=O (stereo partly specified) [Tigecycline]
cell viability (%): 94.3

molecule: CCOP(=O)(OCC)C(=Cc1cc(C(C)(C)C)c(O)c(C(C)(C)C)c1)P(=O)(OCC)OCC
cell viability (%): 99.1

molecule: CCCCN1C[C@H](O)[C@@H](O)[C@H](O)[C@H]1CO [Miglustat]
cell viability (%): 97.8

molecule: COc1cc(/C=C/C(=O)N2CCC=CC2=O)cc(OC)c1OC [Piperlongumine]
cell viability (%): 106

molecule: O=C(O)c1cc(Cl)cc(Cl)c1O [3,5-Dichlorosalicylic Acid]
cell viability (%): 87.4

molecule: CC(C)(C#N)c1cc(Cn2cncn2)cc(C(C)(C)C#N)c1 [Anastrozole]
cell viability (%): 97.6

molecule: Nc1ccccc1C(=O)C[C@H](N)C(=O)O [L-Kynurenine]
cell viability (%): 105

molecule: O=c1oc2c(O)c(O)cc3c(=O)oc4c(O)c(O)cc1c4c23 [Benzoaric Acid]
cell viability (%): 95.9

molecule: Cc1cc(CS(=O)(=O)c2ccccc2)cc(OCc2ccc(CN3CCC[C@@H]3CO)cc2)c1 [PF-543 hydrochloride]
cell viability (%): 91.9

molecule: NC(=O)c1cccc(-c2cccc(OC(=O)NC3CCCCC3)c2)c1 [URB-597]
cell viability (%): 96.9

molecule: O=C(O)c1cc(N=Nc2ccc(S(=O)(=O)Nc3ccccn3)cc2)ccc1O [Sulfasalazine]
cell viability (%): 97.1

molecule: CC(C)c1cc2c(c(O)c1O)[C@@]1(C(=O)O)CCCC(C)(C)[C@@H]1CC2 [Carnosic acid]
cell viability (%): 98

molecule: COc1ccc(S(=O)(=O)N2CCN(S(=O)(=O)c3ccc4c(c3)OCCO4)CC2)cc1 [BML283]
cell viability (%): 93.8
